Assay explanation: small-molecule microarray binders of probe aDKK1, primary screen, biochemical, biotinylated probe, 635/667 nm fluorescence (AID 1099);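 further: score merges 667nm spot fluorescence with signal to noise across triplicate slides; reference of the scale not given here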
Conditions: higher = more signal
Quantity kind: composite z-score

Prompt: If you can, please state the reported composite z-score value of `O=C1N(Cc2ccccc2)Cc2ccccc2C[C@@]12COC(c1ccc(OCCCO)cc1)=N2` .
Completion: 1.02

Prompt: If you can, please state the reported composite z-score value of `C=C(COC)C(=O)CC[C@H](OC(C)=O)c1ccc(CO)o1` .
Completion: -0.362

Prompt: If you can, please state the reported composite z-score value of `O=C(c1ccccc1)N1Cc2ccccc2C[C@@]2(N=C(c3ccc(OCCCO)cc3)O[C@H]2c2ccccc2)C1=O` .
Completion: -0.114

---

Exercise: for every item that follows, state its recorded composite z-score.
Assay explanation: compound binding in COS7 lysate, probe aLAP1, primary screen, cell lysate, small-molecule microarray (AID 1124);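 further: lysate comes from COS7 cells expressing LAP1 and is applied at 0.3 µg/mL; score merges spot fluorescence near 667 nm with signal-to-noise over triplicate slides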
Conditions: probe aLAP1, fluorescence, higher = more signal
Could you respond with only the numeric value?

Prompt: If you can, please state the reported composite z-score value of `C=C(COC)C(=O)CC[C@H](OC(C)=O)c1ccccc1OCCO` .
Completion: -0.325

Prompt: If you can, please state the reported composite z-score value of `COCCOC(=O)N1C(=O)[C@@]2(c3ccccc31)[C@H](C(=O)Nc1nc3ccccc3s1)[C@H]1C(=O)O[C@H](c3ccccc3)[C@H](c3ccccc3)N1[C@@H]2c1ccccc1OCCO` .
Completion: 1.63

Prompt: If you can, please state the reported composite z-score value of `C=CCOC(=O)[C@H]1[C@@H]2C(=O)O[C@@H](c3ccccc3)[C@@H](c3ccccc3)N2[C@@H](c2ccc(OCCOC(=O)[C@@H]3C[C@@H]4C(=O)N[C@@H](Cc5ccccc5)C(=O)N4[C@@H]3c3ccc(O)cc3)cc2)[C@]12C(=O)Nc1ccc(I)cc12` .
Completion: -0.052

Prompt: If you can, please state the reported composite z-score value of `COc1cc2c(cc1OC)CN(C(=O)[C@@H]1[C@H]3C(=O)O[C@H](c4ccccc4)[C@H](c4ccccc4)N3[C@H](c3ccc(O)cc3)[C@@]13C(=O)Nc1ccc(C#CC4=CCCCC4)cc13)CC2` .
Completion: 0.453

Prompt: If you can, please state the reported composite z-score value of `O=C1O[C@@H](c2ccccc2)[C@@H](c2ccccc2)N2[C@@H](c3ccccc3OCCO)[C@]3(C(=O)Nc4ccc(C#CC5(O)CCCCCC5)cc43)[C@@H](C(=O)N3CCCCCCC3)[C@H]12` .
Completion: 1.41

Prompt: If you can, please state the reported composite z-score value of `COC(=O)[C@@]1(Cc2ccc(F)cc2)[C@H]2c3cc(C(=O)N4CCCC4)n(C[C@H](O)CO)c3C[C@H]2CN1C(=O)c1ccccc1` .
Completion: 1.23

Prompt: If you can, please state the reported composite z-score value of `O=C(NCCN1CCOCC1)[C@@H]1c2ccccc2C(=O)N(CC23CC4CC(CC(C4)C2)C3)[C@H]1c1ccc(CO)cc1` .
Completion: 0.522

Prompt: If you can, please state the reported composite z-score value of `O=C(N1CCOCC1)[C@]1(CCS(=O)(=O)c2ccccc2)N=C(c2ccc(OCCCO)cc2)O[C@@H]1c1ccccc1` .
Completion: 0.473

Prompt: If you can, please state the reported composite z-score value of O=C1NC(=O)C2C1C=CC(C(O)C1CCCCC1)N2Nc1ccccn1 (stereo unspecified) .
Completion: -0.636

Prompt: If you can, please state the reported composite z-score value of `[N-]=[N+]=NCc1ccccc1[C@H]1OC(c2ccc(OCCCO)cc2)=N[C@@]1(Cc1ccccc1N=[N+]=[N-])C(=O)O` .
Completion: 0.455

Prompt: If you can, please state the reported composite z-score value of CC(C)c1ccc(NN2C(C(O)C3=C[C@H]4C[C@@H](C3)C4(C)C)C=CC3C(=O)N(c4ccccc4)C(=O)C32)cc1 (stereo partly specified) .
Completion: 1.09
